Provide the recorded IC50 for the entries that follow.
- target_or_system: Pyruvate kinase PKM (Homo sapiens)
- test_name: Inhibition of human PKM2 assessed as ATP production incubated for 10 mins by Celltiter-glo luminescent analysis
Give your result in nM as a bare value.

Enquiry: Specify measured IC50 for `O=C([C@@H]1CCN(Cc2ccccc2)C1)N(Cc1ccccc1)c1ccc([As](O)O)cc1` .
Return: 326

Enquiry: Report IC50, nothing else, for this compound: `O=C(CCCC[C@H]1SC[C@H]2NC(=O)N[C@H]21)NCCOCCOCCOCCOCC(=O)Nc1ccc([As](O)O)cc1`
Return: 230

Enquiry: For the compound `CN1CC[C@@H](C(=O)Nc2ccc([As](O)O)cc2)C1` , report IC50.
Return: 139

Enquiry: Answer with the recorded IC50 of `CC(C)=CC[C@@H](O)C1=CC(=O)c2c(O)ccc(O)c2C1=O` only.
Return: 2580

Enquiry: In one line, give reported IC50 of the entry `CCN1CCC(CN(C(=O)[C@H]2CCN(Cc3ccccc3)C2)c2ccc([As](O)O)cc2)CC1` .
Return: 671

Enquiry: Report IC50 for `COc1ccc([As](O)O)cc1NC(=O)COCCOCCOCCOCCNC(=O)CCCC[C@H]1SC[C@H]2NC(=O)N[C@H]21`
Return: 999

----------
- target_or_system: Pyruvate kinase PKM (Homo sapiens, UniProt P14618)
- Sequence (P14618 whole entry): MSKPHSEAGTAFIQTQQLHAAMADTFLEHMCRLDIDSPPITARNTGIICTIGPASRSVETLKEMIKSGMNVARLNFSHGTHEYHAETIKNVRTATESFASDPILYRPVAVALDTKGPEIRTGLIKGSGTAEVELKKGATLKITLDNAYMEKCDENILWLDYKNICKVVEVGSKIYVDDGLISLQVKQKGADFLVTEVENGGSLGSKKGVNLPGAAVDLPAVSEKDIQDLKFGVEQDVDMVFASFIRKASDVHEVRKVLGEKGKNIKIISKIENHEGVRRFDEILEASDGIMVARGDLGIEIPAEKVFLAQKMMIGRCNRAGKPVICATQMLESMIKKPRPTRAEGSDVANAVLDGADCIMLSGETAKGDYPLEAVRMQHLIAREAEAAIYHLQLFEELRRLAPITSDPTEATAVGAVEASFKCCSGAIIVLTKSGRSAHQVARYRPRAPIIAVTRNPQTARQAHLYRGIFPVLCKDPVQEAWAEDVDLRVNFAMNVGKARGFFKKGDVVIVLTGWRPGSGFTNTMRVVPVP
- test_name: Binding affinity to wild type FLAG-tagged PKM2 in human PA-1 cells measured for 72 hrs
- Format: cell-based
measured_parameter: IC50
Note: a bare number is incomplete; add the unit.

Enquiry: Identify IC50 associated with the compound CC(C)=CC[C@@H](O)C1=CC(=O)c2c(O)ccc(O)c2C1=O [SHIKONIN]
Return: 301 nM

Enquiry: Entry `CCN1CCC(CN(C(=O)[C@@H]2CCN(Cc3ccccc3)C2)c2ccc([As]3SCCS3)cc2)CC1` needs its IC50 filled in; supply it.
Return: 16 nM

----------
- target_or_system: Pyruvate kinase PKM (Homo sapiens, UniProt P14618)
- test_name: Inhibition of human PKM2 assessed as ATP production incubated for 10 mins in presence of beta-mercaptoethanol by Celltiter-glo luminescent analysis
Assignment: determine reported IC50 for the given compounds.
Only the number, expressed in nM, is required.

Enquiry: Identify IC50 associated with the compound `COc1ccc([As](O)O)cc1NC(=O)COCCOCCOCCOCCNC(=O)CCCC[C@H]1SC[C@H]2NC(=O)N[C@H]21`
Return: 1280

Enquiry: Please look at this compound and report its IC50: `O=C([C@@H]1CCN(Cc2ccccc2)C1)N(Cc1ccccc1)c1ccc([As](O)O)cc1`
Return: 1490

Enquiry: Indicate the recorded IC50 value for this compound: `CCN1CCC(CN(C(=O)[C@H]2CCN(Cc3ccccc3)C2)c2ccc([As](O)O)cc2)CC1`
Return: 2140

Enquiry: Return reported IC50. Input compound: `CN1CC[C@@H](C(=O)Nc2ccc([As](O)O)cc2)C1`
Return: 586

----------
Hi there, I'd appreciate the recorded pIC50 for every entry that follows.
- target_or_system: Pyruvate kinase PKM (Homo sapiens, UniProt P14618, C474A)
- Sequence (P14618 2-531 C474A limits assumed): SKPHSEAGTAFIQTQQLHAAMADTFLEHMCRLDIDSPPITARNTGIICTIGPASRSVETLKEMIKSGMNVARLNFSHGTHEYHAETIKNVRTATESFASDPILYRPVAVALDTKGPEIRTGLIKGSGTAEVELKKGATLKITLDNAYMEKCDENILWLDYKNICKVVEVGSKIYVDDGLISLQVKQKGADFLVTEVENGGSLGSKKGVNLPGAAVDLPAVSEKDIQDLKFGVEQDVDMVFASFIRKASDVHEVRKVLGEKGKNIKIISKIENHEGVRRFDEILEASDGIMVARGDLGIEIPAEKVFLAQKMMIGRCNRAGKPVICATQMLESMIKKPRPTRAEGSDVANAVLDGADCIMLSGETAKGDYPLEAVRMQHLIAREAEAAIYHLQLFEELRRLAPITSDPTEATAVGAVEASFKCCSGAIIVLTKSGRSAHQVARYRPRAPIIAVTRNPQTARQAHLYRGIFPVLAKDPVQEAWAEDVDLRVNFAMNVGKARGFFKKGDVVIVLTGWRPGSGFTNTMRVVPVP
- test_name: Binding affinity to PKM2 C474A mutant in human PA-1 cells measured for 72 hrs
As a rule, pIC50 stands for the negative log10 of the concentration, concentration in M.

Enquiry: Let me know recorded pIC50 for CC(C)=CC[C@@H](O)C1=CC(=O)c2c(O)ccc(O)c2C1=O [SHIKONIN] , thanks.
Return: 6.42

Enquiry: Hello, please tell me recorded pIC50 for this one: `CCN1CCC(CN(C(=O)[C@@H]2CCN(Cc3ccccc3)C2)c2ccc([As]3SCCS3)cc2)CC1`
Return: 6.89

----------
Consider the following compounds; for each one, report its IC50.
- target_or_system: UniProt P14618
- test_name: Inhibition of human PKM2 assessed as ATP production incubated for 10 mins in presence of beta-mercaptoethanol by Celltiter-glo luminescent analysis
Numeric only. Scale: nM

Enquiry: Query IC50 for `CCN1CCC(CN(C(=O)[C@@H]2CCN(Cc3ccccc3)C2)c2ccc([As](O)O)cc2)CC1`
Return: 250

Enquiry: Quick one: give measured IC50 for `CN1CC[C@@H](C(=O)N(Cc2ccccc2)c2ccc([As](O)O)cc2)C1`
Return: 1790

Enquiry: Determine its reported IC50: `O=C(CCCC[C@H]1SC[C@H]2NC(=O)N[C@H]21)NCCOCCOCCOCCOCC(=O)Nc1ccc([As](O)O)cc1`
Return: 1030

----------
- Tested on: SK-OV-3
- test_name: Antiproliferative activity against human SK-OV-3 cells assessed as reduction in cell viability incubated for 72 hrs by Cell-TiterGlo assay
- Type: functional, cell-based
- test_context: SK-OV-3, 72 h
Field: IC50. Provide a value for each of the molecules that follow.
Express it in µM; write the number only.

Enquiry: Supply IC50 measured with SK-OV-3 for `CC(C)=CC[C@@H](O)C1=CC(=O)c2c(O)ccc(O)c2C1=O` .
Return: 3.46

Enquiry: Look up SK-OV-3 data: IC50 of `CN1CC[C@@H](C(=O)Nc2ccc([As](O)O)cc2)C1` , then report it.
Return: 0.28

Enquiry: Report its IC50 with SK-OV-3 as the test system: `CCN1CCC(CN(C(=O)[C@H]2CCN(Cc3ccccc3)C2)c2ccc([As]3SCCS3)cc2)CC1`
Return: 0.13

----------
- target_or_system: Pyruvate kinase PKM (Homo sapiens, UniProt P14618)
- test_name: Inhibition of human PKM2 assessed as ATP production incubated for 10 mins by Celltiter-glo luminescent analysis
Give measured IC50 for each item. Keep answers brief.
Reply with just the number (in nM).

Enquiry: Consider the compound `CN1CC[C@@H](C(=O)N(Cc2ccccc2)c2ccc([As](O)O)cc2)C1` and give its recorded IC50.
Return: 285

Enquiry: Query IC50 for `CCN1CCC(CN(C(=O)[C@@H]2CCN(Cc3ccccc3)C2)c2ccc([As](O)O)cc2)CC1`
Return: 122

----------
- target_or_system: Pyruvate kinase PKM (Homo sapiens, UniProt P14618, C474S)
- Sequence (P14618 2-531 C474S limits assumed): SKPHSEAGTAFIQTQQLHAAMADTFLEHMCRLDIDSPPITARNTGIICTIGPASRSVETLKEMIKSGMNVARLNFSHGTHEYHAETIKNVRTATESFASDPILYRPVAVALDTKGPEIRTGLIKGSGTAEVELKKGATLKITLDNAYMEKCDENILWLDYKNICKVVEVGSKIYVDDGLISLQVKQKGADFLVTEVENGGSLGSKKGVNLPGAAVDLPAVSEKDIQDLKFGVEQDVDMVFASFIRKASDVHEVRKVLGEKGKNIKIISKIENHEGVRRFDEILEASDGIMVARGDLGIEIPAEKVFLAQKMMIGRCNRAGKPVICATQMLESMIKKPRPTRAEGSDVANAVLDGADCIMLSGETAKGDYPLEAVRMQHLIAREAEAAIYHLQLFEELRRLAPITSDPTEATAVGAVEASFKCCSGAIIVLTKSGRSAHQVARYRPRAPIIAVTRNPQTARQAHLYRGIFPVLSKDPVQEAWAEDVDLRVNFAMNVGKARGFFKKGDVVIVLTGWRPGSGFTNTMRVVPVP
- test_name: Binding affinity to PKM2 C474S mutant in human PA-1 cells measured for 72 hrs
measured_parameter: pIC50
// scale note: pIC50 = -log10(conc_M); give the bare number

Enquiry: State recorded pIC50 with Pyruvate kinase PKM (Homo sapiens, UniProt P14618, C474S), entry `CC(C)=CC[C@@H](O)C1=CC(=O)c2c(O)ccc(O)c2C1=O` , no comment.
Return: 6.49

Enquiry: State measured pIC50 of the compound `CCN1CCC(CN(C(=O)[C@@H]2CCN(Cc3ccccc3)C2)c2ccc([As]3SCCS3)cc2)CC1` with Pyruvate kinase PKM (Homo sapiens, UniProt P14618, C474S).
Return: 7.03

----------
- target_or_system: UniProt:P14618
- test_name: Inhibition of human PKM2 assessed as ATP production incubated for 10 mins in presence of beta-mercaptoethanol by Celltiter-glo luminescent analysis
pIC50: −log10 of the molar value.
measured_parameter: pIC50

Enquiry: Please look at this compound and report its pIC50: `CCN1CCC(CN(C(=O)[C@@H]2CCN(Cc3ccccc3)C2)c2ccc(B(O)O)cc2)CC1`
Return: < 5.00

Enquiry: Retrieve pIC50 measured for `CCN1CCC(CN(C(=O)[C@@H]2CCN(Cc3ccccc3)C2)c2ccc([As]3SCCS3)cc2)CC1` and print it.
Return: < 5.00

Enquiry: Supply recorded pIC50 for `CC(C)=CC[C@@H](O)C1=CC(=O)c2c(O)ccc(O)c2C1=O` here.
Return: < 5.00

----------
Hi there, I'd appreciate the recorded IC50 for every entry that follows.
- System: SK-OV-3
- test_name: Antiproliferative activity against human SK-OV-3 cells assessed as reduction in cell viability incubated for 72 hrs by Cell-TiterGlo assay
- Assay type: functional, cell-based
- test_context: SK-OV-3, 72 h

Enquiry: Report measured IC50 on SK-OV-3; entry: `CCN1CCC(CN(C(=O)[C@@H]2CCN(Cc3ccccc3)C2)c2ccc(B(O)O)cc2)CC1`
Return: > 10 µM

Enquiry: Enter recorded IC50 with SK-OV-3 for `CCN1CCC(CN(C(=O)[C@@H]2CCN(Cc3ccccc3)C2)c2ccc([As](O)O)cc2)CC1` here.
Return: > 10 µM

Enquiry: Send back SK-OV-3 IC50 of `CCN1CCC(CN(C(=O)[C@@H]2CCN(Cc3ccccc3)C2)c2ccc([As]3SCCS3)cc2)CC1` only.
Return: > 10 µM
